List of response values.
molecular target: recombinant PD-1 molecule (rPD-1), Q15116; experiment: ELISA; details: chain shown with the change; L-chain 4 µM; coated antigen (rPD1): 2 µg/mL and 50 µL/well; parent: est. 0.94; read off a plot
Sequence (Q15116 25-167): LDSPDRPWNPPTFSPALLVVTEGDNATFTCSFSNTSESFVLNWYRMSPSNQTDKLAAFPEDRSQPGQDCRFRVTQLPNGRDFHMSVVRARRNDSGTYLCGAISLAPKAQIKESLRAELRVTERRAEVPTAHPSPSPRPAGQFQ

stdin: Query response for H34 wild type (H34wt) catalytic antibody light chain T97A (protein) DIQMTQSPSTLSASVGDRVTITCRASQSISSWLAWYQQKPGKAPKVLIYKASTLESGVPLRFSGSGSGTEFTLTISSLQPDDFATYYCQQYSTYRAFGQGTKVEIK
stdout: 1.15 OD (490nm)

stdin: Query response for H34 wild type (H34wt) catalytic antibody light chain D1A (protein) AIQMTQSPSTLSASVGDRVTITCRASQSISSWLAWYQQKPGKAPKVLIYKASTLESGVPLRFSGSGSGTEFTLTISSLQPDDFATYYCQQYSTYRTFGQGTKVEIK
stdout: 1.12 OD (490nm)

stdin: Query response for H34 wild type (H34wt) catalytic antibody light chain R96P (protein) DIQMTQSPSTLSASVGDRVTITCRASQSISSWLAWYQQKPGKAPKVLIYKASTLESGVPLRFSGSGSGTEFTLTISSLQPDDFATYYCQQYSTYPTFGQGTKVEIK
stdout: 0.09 OD (490nm)

stdin: Query response for H34 wild type (H34wt) catalytic antibody light chain T93A (protein) DIQMTQSPSTLSASVGDRVTITCRASQSISSWLAWYQQKPGKAPKVLIYKASTLESGVPLRFSGSGSGTEFTLTISSLQPDDFATYYCQQYSAYRTFGQGTKVEIK
stdout: 0.69 OD (490nm)

stdin: Query response for H34 wild type (H34wt) catalytic antibody light chain R96A (protein) DIQMTQSPSTLSASVGDRVTITCRASQSISSWLAWYQQKPGKAPKVLIYKASTLESGVPLRFSGSGSGTEFTLTISSLQPDDFATYYCQQYSTYATFGQGTKVEIK
stdout: 0.07 OD (490nm)
